Where do these numbers come from? They come from patent US20240293425A1.

- assayMethodText: Solubility in co-solvent injectable formulation
- recordedConditions: co-solvent based injectable formulation, aqueous with cosolvent or surfactant or cyclodextrin
recordedEndpoint: solubility (µg/mL)
Please state the figure in µg/mL; there is no need to write the unit.

Q: Fill in solubility for record `C#Cc1ccc2c(c1)C(c1ccccc1F)=NCC(=O)N2C`
Ans: 10000
